Reported GI50 values are given for each entry in this list.
System: HCC 2998
Test: NCI tumour cell line growth inhibition, 48 h
Activity calls are given as the source filed them. No stated cut-off is given here; in the data, active = GI50 up to about 1.1 µM and inactive = higher.

Previously resolved entries follow.
INSERT INTO results (compound, result) VALUES
  ('CC12CC(OC(=O)[C@]1(C)O)[C@@H]([C@]1(O)CC[C@H]3[C@@H]4C[C@H]5O[C@]56[C@@H](O)C=CC(=O)[C@]6(C)[C@H]4CC[C@@]31C)C2 (stereo partly drawn)', '16.2 µM (inactive)'),
  ('CN(C)C(=N)NC(=S)N(C)C', '> 100 µM (inactive)');

With those in mind, consider the next compound.
Give HCC 2998 GI50 for the following compound: `O=C1c2cccc(O)c2C(=O)c2cccc(O)c21`
> 100 µM (inactive)

====

Test system: NCI/ADR-RES
Assay: NCI tumour cell line growth inhibition, 48 h
The source made the active and inactive calls. No stated cut-off is given here; in the data, active = GI50 up to about 1.1 µM and inactive = higher.
Response enum: active, inactive

INSERT INTO results (molecule, class) VALUES
  ('O=C1C=CC(=O)N1n1c(-c2ccccc2)n[nH]c1=O', 'inactive');

Could you please tell me the result logged for CCN(CC)C1Oc2cc3c(cc2C(c2cc(OC)c(OC)c(OC)c2)C1C)OCO3 (stereo not given) in this assay?
active

Could you please tell me the result logged for `CC(=O)Oc1c(-c2ccccc2)oc2ccccc12` in this assay?
inactive

Could you please tell me the result logged for `CCCC(=O)NC(Nc1ccc(S(=O)(=O)Nc2nc(C)cc(C)n2)cc1)(C(F)(F)F)C(F)(F)F` in this assay?
inactive

Could you please tell me the result logged for CCC1(O)CC(OC2CC(N(C)C)C(OC3CC(O)C(OC4CCC(=O)C(C)O4)C(C)O3)C(C)O2)c2c(cc3c(c2O)C(=O)c2c(O)ccc(O)c2C3=O)C1C(=O)OC (stereo not given) in this assay?
active

====

Parameter GI50, tested on HCT-15, listed per item.

Previously resolved entries follow.
INSERT INTO results (compound, measurement_label, result) VALUES
  ('O=C(Nc1ccccc1)c1cc2c(cc1Cl)SC(NNCCO)=NS2(=O)=O', 'GI50', '> 100 µM'),
  ('O=C1c2ccccc2NC(=S)[C@@H]2CCCN12', 'GI50', '> 100 µM'),
  ('C[C@H]1O[C@@H](c2c(O)ccc3ccccc23)C[C@@H](N(C)C)C1O (some centres not stated)', 'GI50', '> 100 µM');

Quickly give me recorded GI50 for Cc1ccc(S(=O)(=O)NNC(C[N+](=O)[O-])c2ccccc2)cc1 (configuration not stated)
15.9 µM

Quickly give me recorded GI50 for `CC(=O)Oc1ccc(-c2nnc(-c3ccc(OC(C)=O)cc3)nn2)cc1`
51.4 µM

Quickly give me recorded GI50 for CC(=O)OC1C/C(C)=C/[C@H](O)CC(C)/C=C/[C@@]2(C)CCC(C(C)(C)O)C12 (some centres not stated)
> 100 µM

Quickly give me recorded GI50 for `CCSC1=N/C(=C\c2ccccc2O)C(Nc2ccc(C)cc2)=N1`
59.7 µM

Quickly give me recorded GI50 for O=C1CC(c2ccccc2Cl)C2(C(=O)NC(=O)NC2=O)C(c2ccccc2Cl)C1 (configuration not stated)
> 100 µM

Quickly give me recorded GI50 for COc1ccc(-n2cnc3c(NC(CCSC)C(=O)O)ncnc32)cc1 (configuration not stated)
> 100 µM

Quickly give me recorded GI50 for `CNNC1=NS(=O)(=O)c2cc(C(=O)OC)c(Cl)cc2S1`
> 10 µM

Quickly give me recorded GI50 for `Cc1cc(-n2nnc(C(=O)O)c2-c2ccccc2)c2ccc(Cl)cc2n1`
> 100 µM

Quickly give me recorded GI50 for `CCOC(=O)CN.CCOC(=O)Nc1ccc(S(=O)(=O)OC)cc1.CCOC(=O)Nc1ccc(S(=O)(=O)OC)cc1`
> 50 µM

====

Tested on: M14
Assay: NCI tumour cell line growth inhibition, 48 h
Activity calls are given as the source filed them. Cut-off read from the data, not from the text of the source: active = GI50 up to about 1.1 µM and inactive = higher.
measurement label: GI50

INSERT INTO measurements (compound, measurement_label, result) VALUES
  ('Fc1ccc(C2SCc3nc4ccccc4n32)c(F)c1 (stereo not given)', 'GI50', '73.1 µM (inactive)'),
  ('O=C(O)C/C(=C\c1ccco1)C(=O)O', 'GI50', '> 100 µM (inactive)'),
  ('O=C(Cc1nc2ccc(C(=O)c3ccccc3)cc2nc1O)C(=O)Nc1ccc(C(F)(F)F)cc1[N+](=O)[O-]', 'GI50', '> 100 µM (inactive)'),
  ('C[n+]1c2ccccc2c(C(=O)Nc2ccc(S(=O)(=O)Nc3ncccn3)cc2)c2ccccc21', 'GI50', '> 100 µM (inactive)'),
  ('CC(=O)/C=C1\Nc2ccccc2N\C1=C/C(C)=O', 'GI50', '21.6 µM (inactive)');

With those in mind, consider the next compound.
Quickly give me recorded GI50 for `O=C1OC(c2ccccc2)=N/C1=C\c1ccc(N(CCCl)CCCl)cc1`
> 100 µM (inactive)

====

Test system: HOP-92
Assay: NCI tumour cell line growth inhibition, 48 h
The source made the active and inactive calls. Cut-off read from the data, not from the text of the source: active = GI50 up to about 1.1 µM and inactive = higher.
measurement label: GI50

Quickly give me recorded GI50 for `CC(=O)O[C@@H]1[C@@H](O)C2=C3[C@]4(C)[C@@H]1C(C)(C)C(=O)C[C@@H]4[C@]3(O)[C@H](OC(C)=O)[C@@]1(C[C@@H]1C)C2=O`
15.6 µM (inactive)

Quickly give me recorded GI50 for CC(=O)OC1CC[C@@]2(C)C(CC(OC3OC(CO)C(O)C(O)C3O)[C@]3(C)C2CCC24CC23CC[C@H]4C(C)CC(O)[C@@H](O)C(C)(C)O)C1(C)C (stereo partly drawn)
10 µM (inactive)

Quickly give me recorded GI50 for `O=C1Nc2ccccc2S/C1=C\c1ccc(C(F)(F)F)cc1`
> 100 µM (inactive)

====

System: K562
Assay: NCI tumour cell line growth inhibition, 48 h
Activity calls are given as the source filed them. Cut-off read from the data, not from the text of the source: active = GI50 up to about 1.1 µM and inactive = higher.
measurement label: GI50

INSERT INTO results (compound, measurement_label, result) VALUES
  ('Cc1ccc(OCC2OC(n3cnc4nc(Cl)nc(Cl)c43)CC2Oc2ccc(C)cc2)cc1 (configuration not stated)', 'GI50', '1.95 µM (inactive)');

Quickly give me recorded GI50 for `CC(=O)Oc1ccc(-c2nnc(-c3ccc(OC(C)=O)cc3)nn2)cc1`
55.5 µM (inactive)

Quickly give me recorded GI50 for C=C1CC2(CC(c3ccccc3C)OC(c3ccccc3C)C2)OC1=O (configuration not stated)
2.15 µM (inactive)

Quickly give me recorded GI50 for CC(Oc1ccc(OCC2CCCCC2)cc1)C(=O)NCc1ccco1 (configuration not stated)
42.3 µM (inactive)

====

Test system: EKVX
Assay: NCI tumour cell line growth inhibition, 48 h
Active and inactive are the calls of the source. No stated cut-off is given here; in the data, active = GI50 up to about 1.1 µM and inactive = higher.
Response enum: active, inactive

Here's what some known entries look like.
INSERT INTO measurements (compound, class) VALUES
  ('C=C(C)[C@@H]1CC[C@@H](C)[C@](O)([C@@H]2C[C@@H]([C@H](COC(=O)c3ccccc3)OC(=O)c3ccccc3)OC2=O)C1', 'inactive'),
  ('COc1cc(Oc2nc3cc(F)c(F)cc3nc2-c2ccccc2)cc(OC)c1OC', 'inactive');

Could you please tell me the result logged for `CC(C)N(Cc1ccccc1)S(=O)(=O)c1nc(C(C)(C)C)n[nH]1` in this assay?
inactive

Could you please tell me the result logged for `Cc1ccc(S(=O)(=O)c2scc(-c3ccccc3)c2C)cc1` in this assay?
inactive

Could you please tell me the result logged for `O=C1CNC(=O)N1` in this assay?
inactive

Could you please tell me the result logged for OC12CCC3(O)c4ccccc4C3C1c1ccccc12 (centres undefined) in this assay?
inactive

Could you please tell me the result logged for Cc1ccc(S(=O)(=O)C2=C([Si](C)(C)C)C3CC2[C@@H]2C4C=CC(CC4)[C@H]32)cc1 (some centres undefined) in this assay?
inactive

Could you please tell me the result logged for `NC1=NS(=O)(=O)Nc2nc(-c3ccccc3)c(-c3ccccc3)nc21` in this assay?
inactive

Could you please tell me the result logged for COC1(OC)CC2C(=O)N(Cc3ccccc3)C1C(S(=O)(=O)c1ccccc1)C2C(C)S(=O)(=O)c1ccccc1 (centres undefined) in this assay?
inactive

Could you please tell me the result logged for `CC(C)(NO)/C(=N\O)c1ccccc1` in this assay?
inactive

Could you please tell me the result logged for N#CC1(C2SCC[S+]2[O-])C2=C(C(=O)c3ccccc3C2=O)N2CCCC21 (centres undefined) in this assay?
inactive

Could you please tell me the result logged for `NS(=O)(=O)c1ccc(NNc2c3ccccc3nc3ccccc23)cc1` in this assay?
inactive

Could you please tell me the result logged for `CC(C)C[C@H](NC(=O)[C@H](Cc1ccc(F)cc1)NC(=O)c1ccccn1)B(O)O` in this assay?
active

Could you please tell me the result logged for `COc1ccc(-n2c(N)c(C#N)c(C#N)c2-c2ccccc2)cc1` in this assay?
inactive

Could you please tell me the result logged for N#CC1=C2SCCN2C(=O)C(C#N)C12CCCCC2 (centres undefined) in this assay?
inactive

Could you please tell me the result logged for `N#COc1ccc(Oc2ccc(OC#N)cc2)cc1` in this assay?
inactive

Could you please tell me the result logged for `CC(C)(Br)C(=O)C(Br)Br` in this assay?
inactive

Could you please tell me the result logged for CCC1(O)CC(OC2CC(N(C)C)C(OC3CC(O)C(OC4CCC(=O)C(C)O4)C(C)O3)C(C)O2)c2c(cc3c(c2O)C(=O)c2c(O)ccc(O)c2C3=O)C1C(=O)OC (centres undefined) in this assay?
active

Could you please tell me the result logged for `CN(C)c1ccc(/N=C2/C=CC(=C(C#N)C#N)c3ccccc32)cc1` in this assay?
active

Could you please tell me the result logged for `O=C(O)CCCOc1cc(-c2ccccc2F)nc2cc3c(cc12)OCO3` in this assay?
inactive

Could you please tell me the result logged for CC(C(=O)c1ccc(O)cc1)C1(O)C(=O)Nc2c(Cl)cc(Cl)cc21 (centres undefined) in this assay?
inactive

Could you please tell me the result logged for `COc1ccccc1/C=C1\Sc2scc(-c3ccc(O)c(O)c3)[n+]2C1=O` in this assay?
inactive

Could you please tell me the result logged for `O=C(c1ccc(Cl)cc1)N(Cc1cccnc1)C(=S)N(Cc1cccnc1)C(=O)c1ccc(Cl)cc1` in this assay?
inactive

Could you please tell me the result logged for `O=C1C=CC(=O)N1n1c(-c2ccccc2)n[nH]c1=O` in this assay?
inactive
